Target: T1, hErbB3.mFc (soluble dimeric human ErbB3 extracellular domain fused to mouse Fc) (human)
T1 construct: called dimeric
T1 chain: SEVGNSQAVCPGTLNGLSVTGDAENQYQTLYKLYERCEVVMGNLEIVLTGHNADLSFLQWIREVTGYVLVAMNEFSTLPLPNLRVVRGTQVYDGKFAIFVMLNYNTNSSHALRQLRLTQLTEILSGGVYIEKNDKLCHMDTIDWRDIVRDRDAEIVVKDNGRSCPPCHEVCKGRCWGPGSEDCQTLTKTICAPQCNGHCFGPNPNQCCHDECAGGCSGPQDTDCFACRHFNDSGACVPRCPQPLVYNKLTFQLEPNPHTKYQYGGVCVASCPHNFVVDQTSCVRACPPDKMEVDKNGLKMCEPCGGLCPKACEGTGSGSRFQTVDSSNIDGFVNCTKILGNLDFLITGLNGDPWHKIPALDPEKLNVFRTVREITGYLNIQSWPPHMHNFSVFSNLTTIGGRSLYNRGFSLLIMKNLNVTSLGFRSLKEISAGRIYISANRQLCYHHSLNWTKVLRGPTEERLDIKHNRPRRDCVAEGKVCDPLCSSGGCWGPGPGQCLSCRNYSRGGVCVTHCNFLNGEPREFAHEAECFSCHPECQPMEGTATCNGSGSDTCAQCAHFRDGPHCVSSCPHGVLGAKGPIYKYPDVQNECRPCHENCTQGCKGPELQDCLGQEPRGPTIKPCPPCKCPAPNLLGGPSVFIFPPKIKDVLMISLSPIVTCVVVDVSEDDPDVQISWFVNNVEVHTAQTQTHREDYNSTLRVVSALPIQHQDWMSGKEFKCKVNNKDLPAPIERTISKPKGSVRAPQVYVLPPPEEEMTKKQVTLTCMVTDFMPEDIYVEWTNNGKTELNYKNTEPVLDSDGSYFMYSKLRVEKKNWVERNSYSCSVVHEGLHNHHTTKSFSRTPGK
Test: SPR (Biacore), 25 C, mAb capture format
Could you please report measured koff for the items listed next?
Numbers only, in s⁻¹.

Consider the worked cases shown below.
Binder: H4H2084P (antibody, V domains shown, Fully human, human IgG4 Fc (H4H prefix)) VH: QVQLVESGGGVVQSGKSLRLSCVASGFTFSNYGMHWVRQTPGKGLEWVARIWFDGTNKYYTDSVKGRFTLSRDSSKNTLYLQMNSLRAEDTAVYFCAREESLELDHYVMDVWGQGTTVTVSS VL: AIQMTQSPSSLSASVGDRVTITCRASQDIRDDLGWFQQKPGKAPNLLIYAASSLQSGVPSRFSGSGSGTDFTLTISSLQPEDFATYYCLQDYNYPLTFGGGTKVEIKR
koff / s⁻¹: 3.95e-06
--
Binder: H4H2147P (antibody, V domains shown, Fully human, human IgG4 Fc (H4H prefix)) VH: QVQLVESGGGLVKPGGSLRLSCAASGFTFSDFNMGWIRQAPGKGLEWVSHISGSGNVIYYADSVKGRFAISRDNGKNSLYLQVNSLRAEDTAVYYCARDIGDSDAFDIWGQGTMVTVSS VL: DIQLTQSPSFLSASVGDRVTITCWASQDISSYLAWYQQKPGKAPKLLIYGASTLESGVPSRFSGSGSGTEFTLTISSLQPEDVATYYCQQLNTYPLTFGGGTKVEIKR
koff / s⁻¹: 4.58e-06

As a next step, examine the binder that follows.
Exercise: Please supply the value of reported koff for the item H4H2094P (antibody, V domains shown, Fully human, human IgG4 Fc (H4H prefix)) VH: EVQLVESGGGLVQPGGSLRLSCAASGFTFSSYDMHWVRQATGKGLEWVSAIGPAGDTYYPVSAMGRFTISRDDAKNSLYLQMNSLRAGDTAVYYCAREGVTIRPDDYFGLDVWGQGTTVTVSA VL: DIQLTQSPSFLSASVGDRVTITCWASQGISDYLAWYQKKPGKAPQLLIYAATTLQSGVPSRFSGSGSGTEFTLTISSLQPEDFATYYCQQLNTYPLTFGGGTKVEIKR
Key: 1.37e-06
